Target: Renin (Homo sapiens)
Sequence (P00797 whole entry): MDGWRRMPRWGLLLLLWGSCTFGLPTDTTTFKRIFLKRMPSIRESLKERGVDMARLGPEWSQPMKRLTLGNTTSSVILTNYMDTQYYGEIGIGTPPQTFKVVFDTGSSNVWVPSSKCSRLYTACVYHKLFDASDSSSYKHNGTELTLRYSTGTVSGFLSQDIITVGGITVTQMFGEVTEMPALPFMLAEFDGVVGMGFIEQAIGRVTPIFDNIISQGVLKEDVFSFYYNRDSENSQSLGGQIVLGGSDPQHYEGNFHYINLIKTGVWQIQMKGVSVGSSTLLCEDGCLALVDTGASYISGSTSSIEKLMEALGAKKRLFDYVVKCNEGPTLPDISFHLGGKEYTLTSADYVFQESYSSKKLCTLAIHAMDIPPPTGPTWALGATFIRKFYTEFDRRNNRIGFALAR
Test: Tested for inhibition of renin from human
ENDPOINT LABEL: IC50 (nM)

Before answering, review these 2 worked examples.
# MOLECULE, IC50 / nM
rows = [
    ("CC(C)OC(=O)[C@@H](O)[C@@H](CC1CCCCC1)NC(=O)[C@H](Cc1c[nH]cn1)NC(=O)[C@@H](CC(=O)N1CCOCC1)Cc1cccc2ccccc12", 2700),
    ("CC(C)OC(=O)[C@H](O)[C@@H](CC1CCCCC1)NC(=O)[C@H](Cc1c[nH]cn1)NC(=O)[C@@H](CC(=O)N1CCOCC1)Cc1cccc2ccccc12", 3500),
]

(P) CC(C)OC(=O)[C@H](O)[C@H](CC1CCCCC1)NC(=O)[C@@H](Cc1c[nH]cn1)NC(=O)[C@@H](CC(=O)N1CCOCC1)Cc1cccc2ccccc12
(Q) CC(C)OC(=O)[C@H](O)[C@H](CC1CCCCC1)NC(=O)[C@H](Cc1c[nH]cn1)NC(=O)[C@@H](CC(=O)N1CCOCC1)Cc1cccc2ccccc12
(R) CC(C)OC(=O)C(O)[C@@H](Cc1ccccc1)NC(=O)[C@H](Cc1cnc[nH]1)NC(=O)[C@@H](CC(=O)N1CCOCC1)Cc1cccc2ccccc12 (stereo partly specified)
(S) CC(C)OC(=O)[C@H](O)[C@H](CC1CCCCC1)NC(=O)[C@H](Cc1c[nH]cn1)NC(=O)[C@H](CC(=O)N1CCOCC1)Cc1cccc2ccccc12
Endpoint returns the given molecules ordered by ascending IC50. Write the labels in rank order as requested. Q, R, P, S
